Source: PubChem BioAssay

Recorded nuclear beta-catenin stimulation values for a group of molecules are listed next.
assay: stimulators of nuclear beta-catenin in C2C12, primary screen, imaging, WNT3A-conditioned medium, mouse C2C12, NPC library (AID 1117326); conditions: at 10 µM, active compounds read high; note: reference of the scale not given here

| molecule | nuclear beta-catenin stimulation (%) |
| --- | --- |
| CCC1(c2cccc(O)c2)CCCCN(C)C1 (centres undefined) | -0.6 |
| C1CN(P2(N3CC3)=NP(N3CC3)(N3CC3)=NP(N3CC3)(N3CC3)=N2)CCO1 (centres undefined) | -0.2 |
| COC1CC(=C(c2cccs2)c2cccs2)C[N+](C)(C)C1 (centres undefined) | -1.6 |
| CN1CCN(C(=O)O[C@H]2c3nccnc3C(=O)N2c2ccc(Cl)cn2)CC1 | -0.9 |
| Nc1ccc([As](=O)(O)O)cc1 | 1.1 |
| CC(C)N(CCC(C(N)=O)(c1ccccc1)c1ccccn1)C(C)C (centres undefined) | 0.5 |
| CC(C)C(Br)C(=O)NC(N)=O (centres undefined) | 0.6 |
| Nc1ccc(Cl)cc1C(=O)c1ccccc1F | 2.3 |
| COP(=S)(OC)Oc1ccc(Sc2ccc(OP(=S)(OC)OC)cc2)cc1 | 5.7 |
| Cc1ncsc1CCCl | 1 |
| CC=CC1C(C(=O)OCc2c(F)c(F)c(COC)c(F)c2F)C1(C)C (centres undefined) | 2.1 |
| Clc1ccc(CCC(Cn2ccnc2)Sc2c(Cl)cccc2Cl)cc1 (centres undefined) | 15.6 |
| CNC(C)[C@@H](O)c1ccc(O)cc1 (some centres undefined) | 0.7 |
| CN(C)CCc1ccc(O)cc1 | -0.3 |
